# Target desc: HRH1 (Homo sapiens)
# Construct: purchased Promega (in-house HiBiT-GPCR construct library, NanoBRET)
# Sequence (P35367 whole entry): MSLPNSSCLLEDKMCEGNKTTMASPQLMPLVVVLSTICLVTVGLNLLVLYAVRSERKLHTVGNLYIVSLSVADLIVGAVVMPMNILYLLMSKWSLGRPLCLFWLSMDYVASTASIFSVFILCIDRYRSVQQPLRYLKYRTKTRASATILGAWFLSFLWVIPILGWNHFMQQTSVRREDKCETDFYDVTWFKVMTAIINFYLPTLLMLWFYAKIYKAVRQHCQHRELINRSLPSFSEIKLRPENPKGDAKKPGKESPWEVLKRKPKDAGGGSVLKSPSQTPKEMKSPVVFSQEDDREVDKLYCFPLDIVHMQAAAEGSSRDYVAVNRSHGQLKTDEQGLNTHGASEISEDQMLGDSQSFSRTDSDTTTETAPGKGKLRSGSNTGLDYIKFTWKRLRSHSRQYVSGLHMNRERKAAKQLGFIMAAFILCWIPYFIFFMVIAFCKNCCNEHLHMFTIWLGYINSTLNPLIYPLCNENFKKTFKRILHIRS
# Experiment description: NanoBRET screen HiBiT-HRH1 in HEK293
# Format: binding
# Condition context: HRH1; tracer 0.1μM
NanoBRET Fold Response by entry:
Measured endpoint: NanoBRET Fold Response

Molecule	Obs value
CCCn1c(=O)c2[nH]c(-c3ccc(OCC(=O)NCCNC(=O)CCOCCNC(=O)c4ccc(CNC(=O)CCc5ccc6n5[B-](F)(F)[N+]5=C(c7ccc[nH]7)C=CC5=C6)cc4)cc3)nc2n(CCC)c1=O [XAC-3-NB590]	0.95
CC(C)N(CC[C@H](c1ccccc1)c1cc(CCNC(=O)c2ccc(CNC(=O)CCc3ccc4n3[B-](F)(F)[N+]3=C(c5ccc[nH]5)C=CC3=C4)cc2)ccc1O)C(C)C [Tolterodine-BZ-NB590]	0.99
COc1ccccc1N1CCN(CCCCN2C(=O)c3ccc(CNC(=O)CCOCCOCCOCCOCCNC(=O)CCc4ccc5n4[B-](F)(F)[N+]4=C(c6ccc[nH]6)C=CC4=C5)cc3C2=O)CC1 [NAN-190-2-NB590]	2.49
